assayed-target: hGIPR (Homo sapiens)
Sequence (P48546 22-466): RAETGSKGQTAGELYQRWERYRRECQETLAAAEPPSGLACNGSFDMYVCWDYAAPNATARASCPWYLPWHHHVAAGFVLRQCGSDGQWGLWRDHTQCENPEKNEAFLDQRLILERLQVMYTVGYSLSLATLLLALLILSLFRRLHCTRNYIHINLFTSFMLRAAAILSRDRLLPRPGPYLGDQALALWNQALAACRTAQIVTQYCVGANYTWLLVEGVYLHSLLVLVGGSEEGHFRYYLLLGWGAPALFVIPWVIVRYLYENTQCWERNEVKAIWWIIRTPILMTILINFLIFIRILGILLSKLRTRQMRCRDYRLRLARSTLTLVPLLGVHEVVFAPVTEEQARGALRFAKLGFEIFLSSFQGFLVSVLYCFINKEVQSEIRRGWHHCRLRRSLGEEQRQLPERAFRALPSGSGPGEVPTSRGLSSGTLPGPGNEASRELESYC
protocol-summary: Functional cAMP activation in the presence of 0.1% casein (no HSA);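 note: intracellular cAMP rise after 30 min at 37 °C read by HTRF against a standard curve, scaled between buffer alone (0%) and top control ligand concentration (100%), four-parameter fit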
Format: cell-based
experimental-context: in the presence of 0.1% casein (no HSA); geometric mean; read-out: Relative cAMP EC50, hGIPR
Starred links: 1 amine or outer side, 2 acyl side, 3 side chain; linkers in the order of their positions; H or OH if unused. Non-standard residues stand in square brackets, D forms with d. Groups on a side chain read outwards from the residue. No end group written: not given here. *: point of attachment. C18 diacid = O=C(O)CCCCCCCCCCCCCCCCC(=O)*; αMePhe(2-F) = C[C@](N)(Cc1ccccc1F)C(=O)O; γGlu = O=C(O)[C@H](CCC(=O)[*:2])N[*:1]; αMe4Pal = C[C@](N)(Cc1ccncc1)C(=O)O; αMeY = C[C@](N)(Cc1ccc(O)cc1)C(=O)O; 4Pal = N[C@@H](Cc1ccncc1)C(=O)O; αMeL = CC(C)C[C@](C)(N)C(=O)O; αMeS = C[C@](N)(CO)C(=O)O; Orn = NCCC[C@H](N)C(=O)O; AEEA = NCCOCCOCC(=O)O; Aib = CC(C)(N)C(=O)O
measure-name: pEC50
The scale used: pEC50 is minus the common logarithm of the concentration in molar units.

get_value(item= H-Y[Aib]QGTFTSD[4Pal]SQ[αMeL]LDKK([AEEA-γGlu-C18 diacid])AQ[αMe4Pal]AFIE[αMe4Pal]LIEGGPSSGAPPPSGS-NH2 [Example 948] , readout=pEC50) returns 9.77

get_value(item= H-Y[Aib]QGTFTSD[4Pal]SQ[αMeL]LD[Orn]K([γGlu-γGlu-C18 diacid])AQ[αMe4Pal]QFIEYLLAGGPSSGAPPPSGSEE-NH2 [Example 1006] , readout=pEC50) returns 9.96

get_value(item= Y[Aib]QGTFTSDFS[Orn][αMeL]LDKK([AEEA-AEEA-γGlu-C18 diacid])AQ[Aib]AFIEYLLE[dA]GPSSGEPPPSGS-NH2 [Example 155] , readout=pEC50) returns 9.75

get_value(item= Y[Aib]QGTFTSDFS[Orn][αMeL]LDKK([AEEA-γGlu-C18 diacid])AQ[Aib]AFIEWLLEGGHSSGAPPPGGE-NH2 [Example 273] , readout=pEC50) returns 9.61

get_value(item= H-Y[Aib]QGTFTSDFS[Orn][αMeL]LDKK([AEEA-γGlu-C18 diacid])AQ[Aib]AFIEYLLE[Aib]GPSSG[Aib]PPPSGS-NH2 [Example 239] , readout=pEC50) returns 10.30

get_value(item= H-Y[Aib]QGT[αMePhe(2-F)]TSD[4Pal][αMeS]I[αMeL]LD[Orn]K([AEEA-γGlu-C18 diacid])AQ[αMe4Pal]EFI[dE][αMeY]LIEGGPSSGEPPPTGE-NH2 [Example 1143] , readout=pEC50) returns 11.06
